The reported measurements were obtained from ChEMBL document CHEMBL1143652.

Tested on: A549
Experiment Description: Inhibitory concentration against A549 human lung carcinoma cell line; Range is 10-15 nM
Type: functional, cell-based
Assay Readout: IC50 (nM)
The answer is to be given in nM; state only the numeric part.

Q. Looking for the measured IC50 of CC(C)[C@@H]1NC(=O)[C@@H](NC(=O)[C@H](O)C(C)C)Cc2ccc3c(c2)[C@]24C5=C(N=C1O5)c1nc(Cl)c(o1)-c1c(Cl)[nH]c5cccc(c15)-c1cccc2c1N[C@@H]4O3 , can you help?
A. 15

----------
Provide the reported TP of each item.
Target Under Test: Tubulin beta-4B chain (Homo sapiens)
Experiment Description: Tubulin polymerization at a concentration of 100 uM incubated for 90 minutes
The answer is to be given in %; state only the numeric part.

Q. Looking for the measured TP of CO[C@]12C=C[C@](C)(O1)[C@@H](OC(=O)/C=C/c1cn(C)cn1)C[C@H]1C(C)=CC[C@H](C(C)C)[C@H]1/C=C\2COC1OCC(O)C(O)C1OC(C)=O (some centres not stated) , can you help?
A. 54

Q. Looking for the measured TP of CO[C@]12C=C[C@](C)(O1)[C@@H](OC(=O)/C=C/c1csc(C)n1)C[C@H]1C(C)=CC[C@H](C(C)C)[C@H]1/C=C\2COC1OCC(O)C(O)C1OC(C)=O (some centres not stated) , can you help?
A. 56

Q. Looking for the measured TP of COC(=O)/C1=C/[C@@H]2[C@@H](C(C)C)CC=C(C)[C@@H]2C[C@H](OC(=O)/C=C/c2cn(C)cn2)[C@]2(C)C=C[C@@]1(O)O2 , can you help?
A. 67

Q. Looking for the measured TP of CNC(=O)/C1=C/[C@@H]2[C@@H](C(C)C)CC=C(C)[C@@H]2C[C@H](OC(=O)/C=C/c2cn(C)cn2)[C@]2(C)C=C[C@@]1(OC)O2 , can you help?
A. 52

Q. Looking for the measured TP of CCOC(=O)/C1=C/[C@@H]2[C@@H](C(C)C)CC=C(C)[C@@H]2C[C@H](OC(=O)/C=C/c2cn(C)cn2)[C@]2(C)C=C[C@@]1(O)O2 , can you help?
A. 71

Q. Looking for the measured TP of CCCOC(=O)/C1=C/[C@@H]2[C@@H](C(C)C)CC=C(C)[C@@H]2C[C@H](OC(=O)/C=C/c2cn(C)cn2)[C@]2(C)C=C[C@@]1(OC)O2 , can you help?
A. 69

Q. Looking for the measured TP of CCOC(=O)/C1=C/[C@@H]2[C@@H](C(C)C)CC=C(C)[C@@H]2C[C@H](OC(=O)/C=C/c2cn(C)cn2)[C@]2(C)C=C[C@@]1(OC)O2 , can you help?
A. 46

----------
System: 1A9/ptx-10
Experiment Description: Inhibitory concentration against beta-tubulin mutant 1A9PTX10 cell growth
Type: functional, cell-based
Stated Conditions: Homo sapiens
Provide the reported IC50 of each item.
The answer is to be given in pM; state only the numeric part.

Q. Looking for the measured IC50 of C/C(=C\c1ccc(C)cn1)[C@@H]1C[C@@H]2C[C@@]2(C)CCC[C@H](C)[C@H](O)[C@@H](C)C(=O)C(C)(C)CCC(=O)O1 , can you help?
A. 10900

Q. Looking for the measured IC50 of C/C(=C\c1csc(C)n1)[C@@H]1C[C@@H]2O[C@]2(CF)CCC[C@H](C)[C@H](O)[C@@H](C)C(=O)C(C)(C)[C@@H](O)CC(=O)O1 , can you help?
A. 400

Q. Looking for the measured IC50 of C/C(=C\c1csc(C)n1)[C@@H]1C[C@@H]2C[C@H]2CCC[C@H](C)[C@H](O)[C@@H](C)C(=O)C(C)(C)CCC(=O)O1 , can you help?
A. 17200

Q. Looking for the measured IC50 of C/C(=C\c1ccc(C)cn1)[C@@H]1C[C@@H]2O[C@]2(C)CCC[C@H](C)[C@H](O)[C@@H](C)C(=O)C(C)(C)[C@@H](O)CC(=O)O1 , can you help?
A. 600

Q. Looking for the measured IC50 of C/C(=C\c1ccccn1)[C@@H]1C[C@@H]2O[C@]2(C)CCC[C@H](C)[C@H](O)[C@@H](C)C(=O)C(C)(C)[C@@H](O)CC(=O)O1 , can you help?
A. 1000

Q. Looking for the measured IC50 of C/C(=C\c1cc(C)ccn1)[C@@H]1C[C@@H]2O[C@]2(C)CCC[C@H](C)[C@H](O)[C@@H](C)C(=O)C(C)(C)[C@@H](O)CC(=O)O1 , can you help?
A. 360

----------
Target Under Test: Integrin alpha-IIb/beta-3 (Homo sapiens, UniProt P05106+P08514)
Sequence (P05106 27-788 limits assumed): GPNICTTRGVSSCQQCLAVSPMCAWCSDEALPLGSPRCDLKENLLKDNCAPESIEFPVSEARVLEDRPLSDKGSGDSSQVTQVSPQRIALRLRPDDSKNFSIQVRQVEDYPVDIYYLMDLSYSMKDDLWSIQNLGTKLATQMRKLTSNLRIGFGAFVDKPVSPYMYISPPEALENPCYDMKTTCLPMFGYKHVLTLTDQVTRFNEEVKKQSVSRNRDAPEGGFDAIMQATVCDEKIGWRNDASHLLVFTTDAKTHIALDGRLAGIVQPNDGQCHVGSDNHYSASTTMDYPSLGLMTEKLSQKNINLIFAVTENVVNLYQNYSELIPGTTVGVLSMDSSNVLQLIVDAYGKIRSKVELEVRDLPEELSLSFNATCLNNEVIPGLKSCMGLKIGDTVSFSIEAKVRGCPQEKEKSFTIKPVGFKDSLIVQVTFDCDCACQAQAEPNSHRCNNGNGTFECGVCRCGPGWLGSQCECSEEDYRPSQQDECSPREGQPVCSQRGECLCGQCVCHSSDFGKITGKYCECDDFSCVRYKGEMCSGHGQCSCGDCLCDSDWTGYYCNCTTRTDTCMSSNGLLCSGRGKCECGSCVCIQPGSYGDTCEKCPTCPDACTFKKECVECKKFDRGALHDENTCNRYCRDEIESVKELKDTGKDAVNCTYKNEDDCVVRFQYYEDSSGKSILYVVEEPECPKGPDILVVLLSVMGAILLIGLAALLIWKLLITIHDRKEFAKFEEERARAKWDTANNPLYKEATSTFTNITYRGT
Sequence (P08514 32-887 limits assumed): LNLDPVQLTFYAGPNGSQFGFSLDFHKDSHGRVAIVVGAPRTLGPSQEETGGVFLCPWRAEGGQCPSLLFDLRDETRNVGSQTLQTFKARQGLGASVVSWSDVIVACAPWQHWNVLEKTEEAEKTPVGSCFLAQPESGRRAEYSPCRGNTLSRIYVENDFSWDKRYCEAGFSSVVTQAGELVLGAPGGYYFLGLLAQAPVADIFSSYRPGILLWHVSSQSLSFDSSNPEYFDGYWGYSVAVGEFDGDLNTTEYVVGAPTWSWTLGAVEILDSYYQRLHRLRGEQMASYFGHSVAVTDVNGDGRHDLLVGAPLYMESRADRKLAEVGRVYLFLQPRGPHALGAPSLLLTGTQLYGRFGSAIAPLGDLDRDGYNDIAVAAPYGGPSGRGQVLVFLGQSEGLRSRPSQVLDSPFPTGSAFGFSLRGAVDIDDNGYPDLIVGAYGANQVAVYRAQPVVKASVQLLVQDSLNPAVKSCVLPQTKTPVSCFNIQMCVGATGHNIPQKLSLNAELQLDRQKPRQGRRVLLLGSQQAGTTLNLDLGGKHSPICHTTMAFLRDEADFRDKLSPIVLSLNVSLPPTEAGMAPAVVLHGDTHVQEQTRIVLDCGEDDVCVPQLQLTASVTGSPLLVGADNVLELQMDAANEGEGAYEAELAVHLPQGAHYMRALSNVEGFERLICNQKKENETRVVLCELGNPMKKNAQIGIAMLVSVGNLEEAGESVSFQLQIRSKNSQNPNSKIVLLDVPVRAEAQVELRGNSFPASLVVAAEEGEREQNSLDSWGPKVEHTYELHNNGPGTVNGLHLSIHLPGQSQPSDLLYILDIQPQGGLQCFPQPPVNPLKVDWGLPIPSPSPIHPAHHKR
Sequence (P08514 891-1039 limits assumed): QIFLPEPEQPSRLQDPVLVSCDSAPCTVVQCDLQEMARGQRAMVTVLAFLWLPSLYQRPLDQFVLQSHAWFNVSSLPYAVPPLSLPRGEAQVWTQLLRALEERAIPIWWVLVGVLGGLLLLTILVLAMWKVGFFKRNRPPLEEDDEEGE
Experiment Description: Inhibitory concentration against integrin alpha-2b beta3
Assay type: protein-complex assay
Assay Readout: pIC50
By convention, pIC50 is the negative base-10 log of a molar concentration.

Q. API: value(readout=pIC50, system=Integrin alpha-IIb/beta-3 (Homo sapiens, UniProt P05106+P08514)) for record N=C(N)N1CCN(c2ccc(C(=O)NC[C@H](NS(=O)(=O)c3c(O)ccc4ccccc34)C(=O)O)cc2[N+](=O)[O-])CC1
A. 7.85

----------
Test system: PC-3
Experiment Description: Inhibitory concentration against PC-3 human prostate carcinoma cell line; Range is 10-15 nM
Format: functional, cell-based
Assay Readout: IC50

Q. Looking for the measured IC50 of CC(C)[C@@H]1NC(=O)[C@@H](NC(=O)[C@H](O)C(C)C)Cc2ccc3c(c2)[C@]24C5=C(N=C1O5)c1nc(Cl)c(o1)-c1c(Cl)[nH]c5cccc(c15)-c1cccc2c1N[C@@H]4O3 , can you help?
A. 15 nM

----------
Target Under Test: Peroxisome proliferator-activated receptor delta (Homo sapiens)
Sequence (Q03181 whole entry): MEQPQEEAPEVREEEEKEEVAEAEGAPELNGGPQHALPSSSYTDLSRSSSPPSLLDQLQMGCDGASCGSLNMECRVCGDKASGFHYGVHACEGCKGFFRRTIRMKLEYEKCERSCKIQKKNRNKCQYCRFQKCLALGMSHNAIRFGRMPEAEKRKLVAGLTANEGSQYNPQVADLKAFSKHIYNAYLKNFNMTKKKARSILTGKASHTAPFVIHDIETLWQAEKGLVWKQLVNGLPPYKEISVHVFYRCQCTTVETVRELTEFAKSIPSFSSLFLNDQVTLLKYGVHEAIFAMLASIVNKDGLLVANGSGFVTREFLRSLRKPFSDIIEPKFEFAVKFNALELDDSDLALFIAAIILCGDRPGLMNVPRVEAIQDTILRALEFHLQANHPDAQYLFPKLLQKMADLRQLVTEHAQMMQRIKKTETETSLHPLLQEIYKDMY
Experiment Description: Effective concentration towards PPAR delta
Assay Readout: pEC50
By convention, pEC50 is the negative base-10 log of a molar concentration.

Q. API: value(readout=pEC50, system=Peroxisome proliferator-activated receptor delta (Homo sapiens)) for record CC(C)N(Cc1cccc2c1OC(C)(C)C=C2)C(=O)c1ccc(-c2ccccc2)cc1
A. 6.00

----------
Tested on: MCF7
Experiment Description: Inhibitory concentration against MCF-7 human breast carcinoma cell line; Range is 10-15 nM
Type: functional, cell-based
Assay Readout: IC50 (nM)
The answer is to be given in nM; state only the numeric part.

Q. Looking for the measured IC50 of CC(C)[C@@H]1NC(=O)[C@@H](NC(=O)[C@H](O)C(C)C)Cc2ccc3c(c2)[C@]24C5=C(N=C1O5)c1nc(Cl)c(o1)-c1c(Cl)[nH]c5cccc(c15)-c1cccc2c1N[C@@H]4O3 , can you help?
A. 15

----------
Target Under Test: Polyunsaturated fatty acid 5-lipoxygenase (Homo sapiens, UniProt P09917)
Sequence (P09917 whole entry): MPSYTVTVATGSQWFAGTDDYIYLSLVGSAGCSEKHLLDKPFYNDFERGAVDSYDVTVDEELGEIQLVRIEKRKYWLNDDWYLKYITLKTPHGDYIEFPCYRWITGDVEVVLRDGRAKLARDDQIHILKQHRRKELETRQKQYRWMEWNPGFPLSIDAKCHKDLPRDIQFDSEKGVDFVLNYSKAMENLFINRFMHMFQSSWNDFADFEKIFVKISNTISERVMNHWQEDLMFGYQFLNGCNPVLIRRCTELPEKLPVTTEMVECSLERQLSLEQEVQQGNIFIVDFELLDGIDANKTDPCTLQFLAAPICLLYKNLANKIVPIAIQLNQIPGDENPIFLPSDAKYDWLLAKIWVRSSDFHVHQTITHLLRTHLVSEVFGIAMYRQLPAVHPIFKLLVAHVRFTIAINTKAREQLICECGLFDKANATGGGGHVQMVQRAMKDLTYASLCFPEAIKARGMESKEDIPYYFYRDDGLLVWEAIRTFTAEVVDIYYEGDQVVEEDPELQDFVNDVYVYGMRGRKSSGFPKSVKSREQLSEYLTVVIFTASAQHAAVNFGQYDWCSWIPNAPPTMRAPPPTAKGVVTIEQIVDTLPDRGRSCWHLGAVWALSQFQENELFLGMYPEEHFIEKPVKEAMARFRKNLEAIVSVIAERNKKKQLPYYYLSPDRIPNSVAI
Experiment Description: Effective concentration required to inhibit 5-lipoxygenase by 50%
Assay Readout: EC50 (nM)
The answer is to be given in nM; state only the numeric part.

Q. Looking for the measured EC50 of O=C(O)CCC[C@H](O)\C=C/C=C/C=C/[C@H](O)C/C=C\CCCCC(F)(F)F , can you help?
A. 3

----------
Target Under Test: Somatostatin receptor
Experiment Description: Binding affinity for SRIF (somatostatin) receptor
Type: protein assay
Provide the reported IC50 of each item.
The answer is to be given in µM; state only the numeric part.

Q. Looking for the measured IC50 of OCCCCCNCC1OC(OCCc2cc3ccccc3[nH]2)C(OCc2ccccc2)CC1OCc1ccccc1 (stereo not given) , can you help?
A. 10

Q. Looking for the measured IC50 of NCCCCCOCC1OC(OCCc2cc3ccccc3[nH]2)CC(OCc2ccccc2)C1OCc1ccccc1 (stereo not given) , can you help?
A. 35

Q. Looking for the measured IC50 of NCCCCCOCC1OC(OCCc2cc3ccccc3[nH]2)C(OCc2ccccc2)CC1OCc1ccccc1 (stereo not given) , can you help?
A. 8.4

Q. Looking for the measured IC50 of NCCCCCOC[C@@H]1O[C@@H](OCCc2cc3ccccc3[nH]2)[C@@H](OCc2ccccc2)[C@@H](OCc2ccccc2)[C@@H]1OCc1ccccc1 , can you help?
A. 15

Q. Looking for the measured IC50 of OCCCCCCNCC1OC(OCCc2cc3ccccc3[nH]2)C(OCc2ccccc2)C(OCc2ccccc2)C1OCc1ccccc1 (stereo not given) , can you help?
A. 5.1

Q. Looking for the measured IC50 of NCCCCCCOCC1OC(OCCc2cc3ccccc3[nH]2)C(OCc2ccccc2)CC1OCc1ccccc1 (stereo not given) , can you help?
A. 6.6

Q. Looking for the measured IC50 of NCCCCCOCC1CC(OCc2ccccc2)C(OCc2ccccc2)C(OCCc2cc3ccccc3[nH]2)O1 (stereo not given) , can you help?
A. 47

Q. Looking for the measured IC50 of OCCCCCCNCC1OC(OCCc2cc3ccccc3[nH]2)C(OCc2ccccc2)CC1OCc1ccccc1 (stereo not given) , can you help?
A. 34

Q. Looking for the measured IC50 of NCCCCCCOC[C@@H]1O[C@@H](OCCc2cc3ccccc3[nH]2)[C@@H](OCc2ccccc2)[C@@H](OCc2ccccc2)[C@@H]1OCc1ccccc1 , can you help?
A. 11

Q. Looking for the measured IC50 of OCCCCCNCC1OC(OCCc2cc3ccccc3[nH]2)C(OCc2ccccc2)C(OCc2ccccc2)C1OCc1ccccc1 (stereo not given) , can you help?
A. 14
